tested on: L1210 leukemia cells; assay: Growth inhibition in L1210 mouse leukemia cells; assay type: cell-based; conditions: Mus musculus, L1210, 24 h, read-out: L1210 IC50, drug exposure 24 hr; comparison of compound 5 with compound 3
pIC50: −log10 of the molar value.
// pIC50 lookup, one value per entry
Assay metric: pIC50

>>> reading("CN(CCCCCl)P(=O)(OCc1ccc([N+](=O)[O-])o1)OC[C@H]1O[C@@H](n2cc(F)c(=O)[nH]c2=O)CC1O (some centres unmarked) [Compound 3]")
8.14
>>> reading("CN(CCCCCl)P(=O)(OCC1=CC(=O)c2ccccc2C1=O)OC[C@H]1O[C@@H](n2cc(F)c(=O)[nH]c2=O)CC1O (some centres unmarked) [Compound 5]")
8.51

---

system: L1210 leukemia cells; test: Growth inhibition in L1210 mouse leukemia cells; type: cell-based; conditions: Mus musculus, L1210, 48 h, drug exposure 48 h; final cell counts 48 hours after start of drug treatment; read-out: IC50
Assay metric: IC50 (nM)

>>> reading("O=c1[nH]c(=O)n([C@H]2C[C@H](O)[C@@H](CO)O2)cc1F [FUdR, 5-Fluoro-2′-deoxyuridine, reference compound]")
0.64

---

System: L1210 leukemia cells
Assay: Growth inhibition in L1210 mouse leukemia cells
Format: cell-based
Details: Mus musculus, L1210, 24 h, read-out: L1210 IC50, drug exposure 24 hr
Protocol: In an alternate embodiment of the invention, the analogous thymidine compounds were prepared (i.e., 3 where F═CH3). The thymidine phosphoramidate was activated by reduction of the nitrofuryl group with sodium dithionite in aqueous buffer/acetonitrile at 37° C., and the reaction was monitored by ^31P nmr. […] Nucleoside phosphoramidate 3 was then evaluated for its ability to inhibit proliferation of L1210 leukemia cells in vitro. […]
pIC50: −log10 of the molar value.
Assay metric: pIC50

>>> reading("CN(CCCCCl)P(=O)(OCc1ccc([N+](=O)[O-])o1)OC[C@H]1O[C@@H](n2cc(F)c(=O)[nH]c2=O)CC1O (stereo partly shown)")
8.22

---

tested on: L1210 leukemia cells; test: Growth inhibition in L1210 mouse leukemia cells; assay type: cell-based; settings: drug exposure 24 h; final cell counts 48 hours after start of drug treatment; read-out: IC50
pIC50: −log10 of the molar value.
Assay metric: pIC50

>>> reading("O=c1[nH]cc(F)c(=O)[nH]1 [Compound 5-FU, reference compound]")
6.44

---

test system: L1210 leukemia cells; assay: Growth inhibition in L1210 mouse leukemia cells; format: cell-based; details: Mus musculus, L1210, drug exposure 24 h; final cell counts 48 hours after start of drug treatment
The compounds listed here are annotated with their IC50.
Assay metric: IC50 (nM)

>>> reading("COC1=CC(=O)c2c(cc(COP(=O)(OCC3OC(n4cc(F)c(=O)[nH]c4=O)CC3O)N(C)CCCCCl)n2C)C1=O (stereo not drawn)")
4.8
>>> reading("CN(CCCCCl)P(=O)(OCc1ccc([N+](=O)[O-])o1)OC[C@H]1O[C@@H](n2cc(F)c(=O)[nH]c2=O)CC1O (stereo partly drawn)")
7.2
>>> reading("CN(CCCCCl)P(=O)(OCC1=CC(=O)c2ccccc2C1=O)OC[C@H]1O[C@@H](n2cc(F)c(=O)[nH]c2=O)CC1O (stereo partly drawn)")
3.1

---

tested on: LM cells; experiment: Tritium assay in LM cells; format: cell-based; conditions: LM; drug 2 hours at 37° C., then [5-3H]dCyt 60 min; read-out: IC50 tritium assay
pIC50: −log10 of the molar value.
Assay metric: pIC50

>>> reading("O=c1[nH]c(=O)n([C@H]2C[C@H](O)[C@@H](CO)O2)cc1F [FUdR, 5-Fluoro-2′-deoxyuridine, reference compound]")
7.23

---

test system: L1210 leukemia cells; assay: Growth inhibition in L1210 mouse leukemia cells; type: cell-based; conditions: Mus musculus, L1210, 48 h, drug exposure 48 h; final cell counts 48 hours after start of drug treatment
Below is a list of entries, each paired with its recorded IC50 value.
Assay metric: IC50

>>> reading("COC1=CC(=O)c2c(cc(COP(=O)(OCC3OC(n4cc(F)c(=O)[nH]c4=O)CC3O)N(C)CCCCCl)n2C)C1=O (stereo not drawn) [Compound 6]")
"1.6 nM"
>>> reading("CN(CCCCCl)P(=O)(OCc1ccc([N+](=O)[O-])o1)OC[C@H]1O[C@@H](n2cc(F)c(=O)[nH]c2=O)CC1O (stereo partly drawn) [Compound 3]")
"2.3 nM"
>>> reading("CN(CCCCCl)P(=O)(OCC1=CC(=O)c2ccccc2C1=O)OC[C@H]1O[C@@H](n2cc(F)c(=O)[nH]c2=O)CC1O (stereo partly drawn) [Compound 5]")
"0.63 nM"

---

test system: LM cells; test: Tritium assay in LM cells; format: cell-based; conditions: read-out: IC50 tritium assay
Assay metric: IC50 (nM)

>>> reading("CN(CCCCCl)P(=O)(OCc1ccc([N+](=O)[O-])o1)OC[C@H]1O[C@@H](n2cc(F)c(=O)[nH]c2=O)CC1O (stereo partly shown) [Compound 3]")
711

---

tested on: luciferase expression in J77 cells transfected with NF-AT-Luciferase plasmid; test: Luciferase inhibition on transfected J77 cells; assay type: cell-based; settings: transfected J77 cells; drug 2 hours, then PMA/Ionomycin/Anti-CD3 for 6 hours; read-out: IC50 luciferase inhibition
pIC50: −log10 of the molar value.
Assay metric: pIC50

>>> reading("CC(NC(=O)c1ccc(NP(=O)(OCc2ccc([N+](=O)[O-])o2)N(C)CCCCCl)cc1)c1ccc(OCC2CCCCC2)c(C(N)=O)c1 (stereo not shown)")
4.82

---

molecular target: pp60src SH2 domain (Homo sapiens)
Sequence (P12931 151-248 limits assumed): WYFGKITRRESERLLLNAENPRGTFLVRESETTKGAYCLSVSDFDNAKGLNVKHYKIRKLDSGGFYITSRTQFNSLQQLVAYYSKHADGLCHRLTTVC
Assay metric: Kd (µM)

>>> reading("CC(NC(=O)c1ccc(OP(=O)(O)O)cc1)c1ccc(OCC2CCCCC2)c(C(N)=O)c1 (stereo not shown) [Compound 12A]")
5.6

---

system: luciferase expression in J77 cells transfected with NF-AT-Luciferase plasmid; assay: Luciferase inhibition on transfected J77 cells; format: cell-based; conditions: read-out: IC50 luciferase inhibition
Assay metric: IC50

>>> reading("CC(NC(=O)Cc1ccc(OP(=O)(OCc2ccc([N+](=O)[O-])o2)N(C)CCCCCl)cc1)c1ccc(OCC2CCCCC2)c(C(N)=O)c1 (stereo not shown) [Compound 40]")
"3.4 µM"
>>> reading("CC(NC(=O)c1ccc(OP(=O)(OCC2=CC(=O)c3ccccc3C2=O)N(C)CCCCCl)cc1)c1ccc(OCC2CCCCC2)c(C(N)=O)c1 (stereo not shown) [Compound 37]")
"4.2 µM"
>>> reading("CC(NC(=O)c1ccc(OP(=O)(OCc2ccc([N+](=O)[O-])o2)N(C)CCCCCl)cc1)c1ccc(OCC2CCCCC2)c(C(N)=O)c1 (stereo not shown) [Compound 35]")
"34.1 µM"
>>> reading("CC(=O)NC(Cc1ccc(OP(=O)(OCc2ccc([N+](=O)[O-])o2)N(C)CCCCCl)cc1)C(=O)NC(C)c1ccc(OCC2CCCCC2)c(C(N)=O)c1 (stereo not shown) [Compound 38]")
"5.6 µM"

The measurements presented in this section are drawn from patent US6903081B2.
